Tested on: PCSK9 gene splice site
Assay type: cell-based, cynomolgus monkey
measurement-name: Cynomolgous Primary Hepatocytes-splice site editing % 2500 ng/mL (%)

- molecule: "GA080: PCSK9 gRNA for ABE8.8 splice site editing, Human/Cyno (nucleic acid, 2'-O-methyl at 1, 2, other sugars and backbone not given here; further chemistry not fully specified, PCSK9 gRNA for ABE8.8 splice site editing, Human/Cyno) guide: CCTTTCCAGGTCATCACAGTGTTTTAGAGCTAGAAATAGCAAGTTAAAATAAGGCTAGTCCGTTATCAACTTGAAAAAGTGGCACCGAGTCGGTGCTTTT"
  scale-unit: "%"
  recorded-number: 8.8
- molecule: "GA072: PCSK9 gRNA for ABE8.8 splice site editing, Human/Cyno (nucleic acid, 2'-O-methyl at 1, 2, other sugars, backbone and T or U not given here; further chemistry not fully specified, PCSK9 gRNA for ABE8.8 splice site editing, Human/Cyno) guide: GGTGGCTCACCAGCTCCAGCGTTTTAGAGCTAGAAATAGCAAGTTAAAATAAGGCTAGTCCGTTATCAACTTGAAAAAGTGGCACCGAGTCGGTGCTTTT"
  scale-unit: "%"
  recorded-number: 1.7
- molecule: "GA079: PCSK9 gRNA for ABE8.8 splice site editing, Human/Cyno (nucleic acid, listed as RNA; modified_base 1: mod_base = OTHER; note = 2'-O-Methyl-cytidine phosphorothioate; modified_base 2: mod_base = OTHER; note = 2'-O-Methyl-uridine phosphorothioate; modified_bas, PCSK9 gRNA for ABE8.8 splice site editing, Human/Cyno) guide: CTTTCCAGGTCATCACAGTTGTTTTAGAGCTAGAAATAGCAAGTTAAAATAAGGCTAGTCCGTTATCAACTTGAAAAAGTGGCACCGAGTCGGTGCTTTT"
  scale-unit: "%"
  recorded-number: 0.5
